B1: Peroxisome proliferator-activated receptor delta, residues 71 to 145; numbered along this chain, Q03181 (parent)
chain: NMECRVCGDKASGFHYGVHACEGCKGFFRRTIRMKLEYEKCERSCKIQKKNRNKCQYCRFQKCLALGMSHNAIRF

- Variants of: B1
- Procedure Text: abundance fitness (aPCA) (normalised: wild type 0, dead -1); higher = more abundant; growth selection in yeast, the domain comes from the species named
- Cond: Homo sapiens
What abundance fitness was measured for each of the following?
Give bare numbers.

Solved entries:
{"columns": ["Mutant Code", "abundance fitness"],
 "data": [
  ["E22Y", -0.389],
  ["S12N", -0.098],
  ["G26N", 0.055],
  ["R33F", 0.208],
  ["L66C", -0.15],
  ["Y57C", -0.305],
  ["T31G", -0.717],
  ["C55T", -0.393],
  ["S44C", -0.164],
  ["K62I", -0.245]
]}

Please report abundance fitness for every entry that follows.
1. E42W
2. H70C
3. V18Y
4. S12P
5. D9A
6. M34K

output:
1. -0.295
2. -0.206
3. -0.652
4. -0.39
5. -0.065
6. -0.074
